System: HSV1
Format: cell-based, Human herpes simplex virus type 1
Conditions: Examples 2 and 3
Peptide text beside a SMILES is read from it.
RECORDED ENDPOINT: efficacy for reducing HSV1 infectivity (in words)

INSERT INTO measurements (molecule, value_observed) VALUES
  ('CC(=O)N[C@@H](CC(C)C)C(=O)N[C@@H](CCCNC(=N)N)C(=O)N[C@@H](CCCCN)C(=O)N[C@@H](CCCNC(=N)N)C(=O)N[C@@H](CC(C)C)C(=O)N[C@@H](CC(C)C)C(=O)N[C@@H](CC(C)C)C(=O)N[C@@H](CCCNC(=N)N)C(=O)N[C@@H](CCCCN)C(=O)N[C@@H](CC(C)C)C(=O)N[C@@H](CCCNC(=N)N)C(=O)N[C@@H](CCCCN)C(=O)N[C@@H](CCCNC(=N)N)C(=O)N[C@@H](CC(C)C)C(=O)N[C@@H](CC(C)C)C(N)=O [GIN 2] (Ac-LRKRLLLRKLRKRLL-NH2)', 'no, or poor, efficacy'),
  ('CC(=O)N[C@@H](CC(C)C)C(=O)N[C@@H](CCCNC(=N)N)C(=O)N[C@@H](CCCCN)C(=O)N[C@@H](CC(C)C)C(=O)N[C@@H](CCCNC(=N)N)C(=O)N[C@@H](CCCCN)C(=O)N[C@@H](CCCNC(=N)N)C(=O)N[C@@H](CC(C)C)C(=O)N[C@@H](CC(C)C)C(=O)N[C@@H](CC(C)C)C(=O)N[C@@H](CCCNC(=N)N)C(=O)N[C@@H](CCCCN)C(=O)N[C@@H](CC(C)C)C(=O)N[C@@H](CCCNC(=N)N)C(=O)N[C@@H](CCCCN)C(N)=O [GIN 4] (Ac-LRKLRKRLLLRKLRK-NH2)', 'no, or poor, efficacy');
